Reference source for all entries: paper PMC8427023

Quick reference: Stability in Medium/Serum 24 h of the listed items.
Assay: Stability in medium/serum solution
Format: in vitro ADME
Conditions: EMEM, 2 mM L-glut, 1 % FBS, 1 % Pen/Strep, 37 °C

molecule: Cc1nc(NC(=O)C(C)(C)C)sc1-c1csc(NCC(O)CO)n1 (stereo not drawn) [4 a]
units: %
Stability in Medium/Serum 24 h: 99.0

molecule: Cc1nc(NC(=O)C(C)(C)C)sc1-c1csc(N(CC(C)(C)O)C2CCCCC2)n1 [4 d]
units: %
Stability in Medium/Serum 24 h: 93.3

molecule: Cc1nc(NC(=O)C(C)(C)C)sc1-c1csc(N(CCO)CCO)n1 [4 b]
units: %
Stability in Medium/Serum 24 h: 91.4

molecule: Cc1nc(NC(=O)C(C)(C)C)sc1-c1csc(NCC(C)(C)O)n1 [4 c]
units: %
Stability in Medium/Serum 24 h: 77

molecule: CC(=O)c1cccc(N(CCO)c2nc(-c3sc(NC(=O)C(C)(C)C)nc3C)cs2)c1 [compound 2]
units: %
Stability in Medium/Serum 24 h: 98.5

molecule: Cc1nc(NC(=O)C(C)(C)C)sc1-c1csc(Nc2cccc(C(=O)O)c2)n1 [compound 1]
units: %
Stability in Medium/Serum 24 h: 96.4
